B1: SMOC2 (parent)
chain: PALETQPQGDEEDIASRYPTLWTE

# Variants of: B1
# protocol-details: protein stability index of a GFP-peptide fusion (GPS, HEK-293T) (PSI 1-6); higher = more stable;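 further: lentivirally expressed fusions sorted by FACS into six bins by GFP to DsRed ratio, PSI derived from sequencing read proportions per bin multiplied by bin number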
# settings: c terminus: a fixed tail appended
Task for the reader: assign each of the following variants its reported protein stability index.
# answer = number (no unit)

For the variant shown here, T20P , give the reported protein stability index. 4.78

Return reported protein stability index; argument: T5C 4.61

Field request: protein stability index | item: W22G 4.47

Fill in: protein stability index of Y18R is ___ 4.53

Could you share which protein stability index value was measured for T5L ? 4.45

Endpoint output: protein stability index of E4M . Value? 3.95

Given P19E , state its recorded protein stability index. 5.49

For T20Y , what is its reported protein stability index? 4.1

# protein stability index lookup, item S16D 4.76

Would you kindly share the measured protein stability index for T23P ? 5.28

Item under review: E12A . Reported protein stability index? 3.94

Reported protein stability index for E24T : what is it? 4.65

// returns reported protein stability index for input Y18A 4.64

Which protein stability index is listed for S16R ? 4.3

Fill blank: measured protein stability index of the variant S16A is ____. 4.5

Param item = E11C ; retrieve measured protein stability index. 4.43

Name the reported protein stability index value associated with the variant A2W 3.88

Which protein stability index value is on record for L21D ? 5.72

I am curious: what protein stability index value has been reported for D10P ? 4.6

Look at this variant and give its reported protein stability index. D10M 3.05

What value of protein stability index has been reported for the following variant? Q8M 4.87

May I ask what protein stability index has been recorded for E24N ? 3.73

Need protein stability index of I14S , thanks. 4.64

Requested read-out: protein stability index. Entry: D10N 4.49

Endpoint output: protein stability index of T5F . Value? 4.58

Would you mind telling me what protein stability index value was observed for E11V ? 4.24

// returns reported protein stability index for input P7E 4.67

Given the variant P7M , what is its reported protein stability index? 4.62

Fill blank: measured protein stability index of the variant P7Y is ____. 4.28

Reported protein stability index for E4I : what is it? 3.21

Value lookup for protein stability index; key = A15H 4.11

Form field: reported protein stability index of S16K 4.18

What measured protein stability index goes with Y18M ? 4.59

Would you kindly share the measured protein stability index for T23D ? 5.55

Could you share which protein stability index value was measured for G9D ? 4.63

What value of protein stability index has been reported for the following variant? P7D 4.67

For R17F , what is its reported protein stability index? 3.82

Looking for the measured protein stability index of E24C , can you help? 4.22

I'd like to know its protein stability index. The variant in question is E4W 3.52

Record request: protein stability index value, item G9V 4.87

Given I14C , state its recorded protein stability index. 4.14

State the recorded protein stability index for this entry: Q6T 4.7

Would you mind telling me what protein stability index value was observed for A2Y ? 4.61

Field request: protein stability index | item: T20N 4.27

What does the record list as protein stability index for R17M ? 4.94

Which protein stability index value is on record for E12P ? 4.33

From: the supplement of paper PMC10567573
